# measured_on: Kinesin-like protein KIFC1 (Homo sapiens)
# Sequence (Q9BW19 whole entry): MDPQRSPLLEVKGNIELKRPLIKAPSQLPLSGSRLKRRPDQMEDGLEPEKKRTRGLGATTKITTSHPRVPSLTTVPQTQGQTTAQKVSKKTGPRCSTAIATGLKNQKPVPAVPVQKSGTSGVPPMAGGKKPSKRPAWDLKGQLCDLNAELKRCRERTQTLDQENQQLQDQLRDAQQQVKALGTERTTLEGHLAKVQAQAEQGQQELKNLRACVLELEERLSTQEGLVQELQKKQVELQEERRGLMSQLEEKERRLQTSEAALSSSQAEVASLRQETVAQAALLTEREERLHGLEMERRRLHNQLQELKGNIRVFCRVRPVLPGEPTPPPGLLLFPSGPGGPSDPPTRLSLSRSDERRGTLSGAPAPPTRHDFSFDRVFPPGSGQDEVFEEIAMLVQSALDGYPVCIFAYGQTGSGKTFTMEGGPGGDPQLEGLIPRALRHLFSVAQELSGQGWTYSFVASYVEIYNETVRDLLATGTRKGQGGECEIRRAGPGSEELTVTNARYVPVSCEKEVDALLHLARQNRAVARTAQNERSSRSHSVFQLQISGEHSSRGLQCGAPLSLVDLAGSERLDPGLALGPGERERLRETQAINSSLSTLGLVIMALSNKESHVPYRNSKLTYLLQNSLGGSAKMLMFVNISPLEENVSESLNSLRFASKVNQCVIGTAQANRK
property_measured: pIC50
Just so you know, pIC50 here is -log10 of the concentration in molar units; reply with that number alone.

Known results for compounds:
| compound | pIC50 |
| --- | --- |
| Cc1nc(-c2ccc3ccnc(N[C@H]4C[C@@H](C(=O)Nc5nc(C)c(Br)s5)C4)c3c2)no1 [US20250084074, Example 97] | 5.94 |
| CCCOC(=O)c1sc(NC(=O)[C@@H](N)CNC(=O)c2cccc(-c3noc(C)n3)c2)nc1C [US20250084074, Example 160] | 7.27 |
| Cc1nc(NC(=O)CCNc2nccc3ccc(C#N)cc23)sc1C(C)(C)C [US20250084074, Example 50] | 6.70 |

# context switch: different compound, same pIC50
Inquiry: Identify the measured pIC50 of CCCOC(=O)c1sc(C(=O)N2CC[C@@H](NC(=O)c3cccc(-c4noc(C)n4)c3)C2)nc1C [US20250084074, Example 241] for Kinesin-like protein KIFC1 (Homo sapiens).
Reply text: 5.51

Reference for the values: BindingDB's records for patent US20250084074
